target: Wee1-like protein kinase (Homo sapiens); also: in the data inactive means no Kd found up to 30 µM
Sequence (P30291 whole entry): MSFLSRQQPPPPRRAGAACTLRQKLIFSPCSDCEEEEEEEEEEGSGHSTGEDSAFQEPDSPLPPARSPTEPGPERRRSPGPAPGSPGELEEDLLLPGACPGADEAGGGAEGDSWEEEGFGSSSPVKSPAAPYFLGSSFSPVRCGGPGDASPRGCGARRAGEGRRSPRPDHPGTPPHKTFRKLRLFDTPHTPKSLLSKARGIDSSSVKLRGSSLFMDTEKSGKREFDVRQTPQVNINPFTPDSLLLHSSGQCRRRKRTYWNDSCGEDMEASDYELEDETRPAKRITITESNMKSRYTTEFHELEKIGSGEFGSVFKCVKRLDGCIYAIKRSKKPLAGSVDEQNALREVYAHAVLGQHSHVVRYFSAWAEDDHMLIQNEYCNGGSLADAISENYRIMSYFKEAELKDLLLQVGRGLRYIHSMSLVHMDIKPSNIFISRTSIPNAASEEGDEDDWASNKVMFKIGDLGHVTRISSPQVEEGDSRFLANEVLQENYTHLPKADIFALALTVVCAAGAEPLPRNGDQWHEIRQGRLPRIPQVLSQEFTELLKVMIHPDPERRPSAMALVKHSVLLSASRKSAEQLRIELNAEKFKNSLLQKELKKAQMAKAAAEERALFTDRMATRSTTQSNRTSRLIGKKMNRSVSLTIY
The source made the active and inactive calls.
Parameter call: string, one of active, inactive

For orientation, consider the following solved cases.
O=C(Nc1nc2cccc(-c3ccc(CN4CCS(=O)(=O)CC4)cc3)n2n1)C1CC1
inactive
CNC(=O)c1nn(C)c2c1C(C)(C)Cc1cnc(Nc3ccc(N4CCN(C)CC4)cc3)nc1-2
active
CC(C)c1cc(CNc2nc(Nc3cc(C4CC4)[nH]n3)cc(N3CCN(C)CC3)n2)on1
inactive

Query: Which outcome was assigned to `NC1(c2ccc(-c3nc4ccn5c(=O)[nH]nc5c4cc3-c3ccccc3)cc2)CCC1` in this test?
Result: inactive
